# Assay procedure: PK study
# Type: in vivo, mouse
# Condition notes: plasma, iv; mouse i.v. 2 mg kg^−1
Measurement kind: C0

Which value of C0 has been reported for COC(=O)N1CCN(C(=N)c2cccc(NC(=O)Nc3ccc(S(=O)(=O)NCc4ccc(S(N)(=O)=O)cc4)cc3)c2)CC1 in the records? 3640 ng/mL

---

# Assay procedure: PK study
# Type: in vivo, mouse
# Condition notes: plasma, iv; mouse i.v. 2 mg kg^−1; read-out: MRT0-t
Measurement kind: MRT last (min)
Value expressed in min; do not type the unit.

Which value of MRT last has been reported for COC(=O)N1CCN(C(=N)c2cccc(NC(=O)Nc3ccc(S(=O)(=O)NCc4ccc(S(N)(=O)=O)cc4)cc3)c2)CC1 [SC83288] in the records? 16.8
